- Organism: Mus musculus
- test.details: Compound was evaluated for antineoplastic activity against mice bearing B6 melanoma.
- Type: functional

compound | Average change in body weight
Cc1ccc(S(=O)(=O)N(C)NC(=O)c2ccccc2)cc1 | 6.8%
Cc1ccc(S(=O)(=O)N(C)NC(=O)/C=C/c2ccccc2)cc1 | 1.8%
Cc1ccc(S(=O)(=O)N(C)NC(=O)c2ccc([N+](=O)[O-])cc2)cc1 | 3.9%
Cc1ccc(S(=O)(=O)N(C)NP(=O)(Oc2ccccc2)Oc2ccccc2)cc1 | 7.4%
Cc1ccc(S(=O)(=O)N(C)NSc2ccccc2[N+](=O)[O-])cc1 | -2%
Cc1ccc(S(=O)(=O)N(C)NP(=O)(c2ccccc2)c2ccccc2)cc1 | 0.7%

====

- Species on record: Mus musculus
- test.details: Compound was evaluated for antineoplastic activity against mice bearing B6 melanoma.
- Assay type: functional
Catalogue of T/C readings, one per entry.
recorded.metric: T/C (%)

compound | recorded.metric | quantitative.readout
Cc1ccc(S(=O)(=O)N(C)NP(=O)(Oc2ccccc2)Oc2ccccc2)cc1 | T/C | 91
Cc1ccc(S(=O)(=O)N(C)NP(=O)(c2ccccc2)c2ccccc2)cc1 | T/C | 112
Cc1ccc(S(=O)(=O)N(C)NSc2ccccc2[N+](=O)[O-])cc1 | T/C | 99
Cc1ccc(S(=O)(=O)N(C)NC(=O)c2ccc([N+](=O)[O-])cc2)cc1 | T/C | 97
Cc1ccc(S(=O)(=O)N(C)NC(=O)/C=C/c2ccccc2)cc1 | T/C | 94
Cc1ccc(S(=O)(=O)N(C)NC(=O)c2ccccc2)cc1 | T/C | 96

src = ChEMBL document CHEMBL1123321
